TEST_TARGET: AChE (EC 3.1.1.7, from electric eel) (Electrophorus electricus)
Construct: purchased Sigma-Aldrich
EXPERIMENT_SUMMARY: biochemical
Kindly state SI for AChE = IC50 BChE/IC50 AChE for each of the entries shown.
Numbers only.

Examples with their reported SI for AChE = IC50 BChE/IC50 AChE follow.
> print(dat)
                                   compound                               test.target  value
1  COc1cc2c(Nc3cccc(Cl)c3)c([N+](=O)[O-])cnc2cc1OCCCN1CCOCC1 [11c]  AChE (EC 3.1.1.7, from electric eel) (Electrophorus electricus)   3.55
2  COc1cc2c(Nc3ccc(Cl)cc3)c(N)cnc2cc1OCCCN1CCOCC1 [12d]  AChE (EC 3.1.1.7, from electric eel) (Electrophorus electricus)   6.63
3  COc1cc2c(Nc3ccccc3)c(N)cnc2cc1OCCCN1CCOCC1 [12a]  AChE (EC 3.1.1.7, from electric eel) (Electrophorus electricus)   3.34
4  COc1cc2c(Nc3ccc(Cl)cc3)c([N+](=O)[O-])cnc2cc1OCCCN1CCOCC1 [11d]  AChE (EC 3.1.1.7, from electric eel) (Electrophorus electricus)   0.92
5  COc1cc2c(Nc3ccccc3)c([N+](=O)[O-])cnc2cc1OCCCN1CCOCC1 [11a]  AChE (EC 3.1.1.7, from electric eel) (Electrophorus electricus)  16.37
6  COc1cc2c(Nc3ccccc3Cl)c(N)cnc2cc1OCCCN1CCOCC1 [12b]  AChE (EC 3.1.1.7, from electric eel) (Electrophorus electricus)   3.01

Batch lookup, SI for AChE = IC50 BChE/IC50 AChE per entry.
1. COc1ccc(Nc2c([N+](=O)[O-])cnc3cc(OCCCN4CCOCC4)c(OC)cc23)cc1 [11f]
2. COc1ccc(Nc2c([N+](=O)[O-])cnc3cc(OCCN4CCOCC4)c(OC)cc23)cc1 [11l]
3. COc1ccc(Nc2c([N+](=O)[O-])cnc3cc(OCCCCN4CCOCC4)c(OC)cc23)cc1 [11r]

-- reply
1. 7.54
2. 7.03
3. 5.65

---

EXPERIMENT_SUMMARY: ABTS radical-scavenging assay
READOUT_LABEL: ABTS radical-scavenging IC50
Please append the unit to your numeric answer.

> print(dat)
                                   compound                 readout.label               value
1  COc1cc2c(Nc3ccccc3)c([N+](=O)[O-])cnc2cc1OCCN1CCOCC1 [11g]  ABTS radical-scavenging IC50  17.50 ± 2.71 µg/mL
2  COc1ccc(Nc2c([N+](=O)[O-])cnc3cc(OCCCCN4CCOCC4)c(OC)cc23)cc1 [11r]  ABTS radical-scavenging IC50  11.25 ± 1.27 µg/mL
3  COc1cc2c(Nc3ccc(O)cc3)c([N+](=O)[O-])cnc2cc1OCCCCN1CCOCC1 [11q]  ABTS radical-scavenging IC50  26.12 ± 2.13 µg/mL
4  COc1ccc(Nc2c([N+](=O)[O-])cnc3cc(OCCCN4CCOCC4)c(OC)cc23)cc1 [11f]  ABTS radical-scavenging IC50   4.25 ± 0.63 µg/mL
5  COc1cc2c(Nc3ccc(O)cc3)c([N+](=O)[O-])cnc2cc1OCCCN1CCOCC1 [11e]  ABTS radical-scavenging IC50  12.01 ± 1.49 µg/mL
6  COc1ccc(Nc2c([N+](=O)[O-])cnc3cc(OCCN4CCOCC4)c(OC)cc23)cc1 [11l]  ABTS radical-scavenging IC50   2.75 ± 0.53 µg/mL
7  COc1cc2c(Nc3ccc(O)cc3)c([N+](=O)[O-])cnc2cc1OCCN1CCOCC1 [11k]  ABTS radical-scavenging IC50   5.75 ± 1.37 µg/mL

Field: next compound
-- ask Give the measured ABTS radical-scavenging IC50 for Cc1c(C)c2c(c(C)c1O)CCC(C)(C(=O)O)O2 (centres unmarked) [Trolox, reference compound]
-- reply 2.76 ± 0.19 µg/mL

---

Kindly state pIC50 for each of the entries shown.
TEST_TARGET: BChE (EC 3.1.1.8, from horse serum) (Equus caballus, UniProt P81908)
Construct: BChE (EC 3.1.1.8, from horse serum); purchased Sigma-Aldrich; host or cells: horse serum
Sequence (P81908 whole entry): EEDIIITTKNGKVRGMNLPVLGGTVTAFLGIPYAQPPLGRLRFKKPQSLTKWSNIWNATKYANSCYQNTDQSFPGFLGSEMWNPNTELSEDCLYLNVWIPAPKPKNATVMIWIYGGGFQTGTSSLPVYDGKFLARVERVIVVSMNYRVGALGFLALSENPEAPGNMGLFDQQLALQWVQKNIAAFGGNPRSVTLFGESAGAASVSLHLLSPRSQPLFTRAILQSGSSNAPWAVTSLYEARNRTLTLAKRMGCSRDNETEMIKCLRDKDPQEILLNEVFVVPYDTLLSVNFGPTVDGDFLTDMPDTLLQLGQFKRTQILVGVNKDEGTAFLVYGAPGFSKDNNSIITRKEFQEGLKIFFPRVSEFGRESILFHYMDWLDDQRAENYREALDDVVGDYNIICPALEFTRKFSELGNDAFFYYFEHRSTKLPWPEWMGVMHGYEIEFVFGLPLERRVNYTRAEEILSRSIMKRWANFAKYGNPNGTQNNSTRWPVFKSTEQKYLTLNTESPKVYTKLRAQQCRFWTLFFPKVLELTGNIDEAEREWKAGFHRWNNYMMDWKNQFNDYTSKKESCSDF
EXPERIMENT_SUMMARY: biochemical
CONDITION_INFO: means ± SD, at least three independents
Numbers only, as −log10 of the molar value.

Examples with their reported pIC50 follow.
> print(dat)
                                   compound  value
1  COc1cc2c(Nc3ccccc3)c(N)cnc2cc1OCCCN1CCOCC1 [12a]   4.52
2  COc1ccc(Nc2c([N+](=O)[O-])cnc3cc(OCCCN4CCOCC4)c(OC)cc23)cc1 [11f]   4.02
3  COc1cc2c(Nc3ccc(Cl)cc3)c([N+](=O)[O-])cnc2cc1OCCCN1CCOCC1 [11d]   4.08

Field: next compound
-- ask Give the measured pIC50 for COc1cc2c(Nc3ccccc3Cl)c(N)cnc2cc1OCCCN1CCOCC1 [12b]
-- reply 3.89

---

TEST_TARGET: AChE (EC 3.1.1.7, from electric eel) (Electrophorus electricus, UniProt O42275)
Construct: purchased Sigma-Aldrich
Sequence (O42275 24-633): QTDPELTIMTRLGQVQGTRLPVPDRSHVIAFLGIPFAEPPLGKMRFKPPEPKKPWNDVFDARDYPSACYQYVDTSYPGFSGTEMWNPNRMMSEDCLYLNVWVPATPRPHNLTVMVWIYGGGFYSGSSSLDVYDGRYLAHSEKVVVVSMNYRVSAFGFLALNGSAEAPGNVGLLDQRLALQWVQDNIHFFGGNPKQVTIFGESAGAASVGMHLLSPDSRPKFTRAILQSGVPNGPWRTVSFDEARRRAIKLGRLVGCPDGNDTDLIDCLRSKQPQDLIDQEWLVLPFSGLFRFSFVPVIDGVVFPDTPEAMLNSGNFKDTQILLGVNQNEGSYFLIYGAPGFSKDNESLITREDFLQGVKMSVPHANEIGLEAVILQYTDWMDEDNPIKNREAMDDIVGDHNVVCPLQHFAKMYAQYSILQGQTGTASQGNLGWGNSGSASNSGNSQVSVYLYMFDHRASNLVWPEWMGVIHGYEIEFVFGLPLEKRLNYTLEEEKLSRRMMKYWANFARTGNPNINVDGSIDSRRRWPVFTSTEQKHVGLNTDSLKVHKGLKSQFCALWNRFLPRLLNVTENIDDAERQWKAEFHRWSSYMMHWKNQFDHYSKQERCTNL
EXPERIMENT_SUMMARY: biochemical
CONDITION_INFO: means ± SD, at least three independents
READOUT_LABEL: pIC50
Give bare numbers, as −log10 of the molar value.

Examples with their reported pIC50 follow.
> print(dat)
                                    compound                               test.target  value
 1  COc1cc2c(Nc3ccc(Cl)cc3)c([N+](=O)[O-])cnc2cc1OCCCCN1CCOCC1 [11p]  AChE (EC 3.1.1.7, from electric eel) (Electrophorus electricus, UniProt O42275)   4.04
 2  COc1cc2c(Nc3ccc(Cl)cc3)c(N)cnc2cc1OCCCN1CCOCC1 [12d]  AChE (EC 3.1.1.7, from electric eel) (Electrophorus electricus, UniProt O42275)   4.66
 3  COc1ccc(Nc2c([N+](=O)[O-])cnc3cc(OCCN4CCOCC4)c(OC)cc23)cc1 [11l]  AChE (EC 3.1.1.7, from electric eel) (Electrophorus electricus, UniProt O42275)   5.04
 4  COc1cc2c(Nc3ccccc3Cl)c([N+](=O)[O-])cnc2cc1OCCCCN1CCOCC1 [11n]  AChE (EC 3.1.1.7, from electric eel) (Electrophorus electricus, UniProt O42275)   4.07
 5  COc1cc2c(Nc3ccccc3Cl)c(N)cnc2cc1OCCCN1CCOCC1 [12b]  AChE (EC 3.1.1.7, from electric eel) (Electrophorus electricus, UniProt O42275)   4.36
 6  COc1cc2c(Nc3ccccc3)c([N+](=O)[O-])cnc2cc1OCCCN1CCOCC1 [11a]  AChE (EC 3.1.1.7, from electric eel) (Electrophorus electricus, UniProt O42275)   5.31
 7  COc1cc2c(Nc3ccccc3)c([N+](=O)[O-])cnc2cc1OCCCCN1CCOCC1 [11m]  AChE (EC 3.1.1.7, from electric eel) (Electrophorus electricus, UniProt O42275)   4.87
 8  COc1cc2c(Nc3cccc(Cl)c3)c([N+](=O)[O-])cnc2cc1OCCN1CCOCC1 [11i]  AChE (EC 3.1.1.7, from electric eel) (Electrophorus electricus, UniProt O42275)   5.00
 9  COc1cc2c(Nc3ccc(O)cc3)c([N+](=O)[O-])cnc2cc1OCCCN1CCOCC1 [11e]  AChE (EC 3.1.1.7, from electric eel) (Electrophorus electricus, UniProt O42275)   4.46
10  COc1cc2c(Nc3ccccc3)c([N+](=O)[O-])cnc2cc1OCCN1CCOCC1 [11g]  AChE (EC 3.1.1.7, from electric eel) (Electrophorus electricus, UniProt O42275)   5.71

Batch lookup, pIC50 per entry.
1. COc1cc2c(Nc3cccc(Cl)c3)c(N)cnc2cc1OCCCN1CCOCC1 [12c]
2. COc1cc2c(Nc3ccc(Cl)cc3)c([N+](=O)[O-])cnc2cc1OCCCN1CCOCC1 [11d]

-- reply
[4.66, 4.05]

---

EXPERIMENT_SUMMARY: Water solubility, shake-flask method
Type: physicochemical
CONDITION_INFO: thermodynamic from solid, double distilled water, 37 °C
READOUT_LABEL: solubility at 24 h (µg/mL)
Numbers only, in µg/mL.

> print(dat)
                                   compound  scale.unit  value
1  COc1cc2c(Nc3ccccc3)c(N)cnc2cc1OCCCN1CCOCC1 [12a]       µg/mL  12900
2  COc1cc2c(Nc3ccccc3)c([N+](=O)[O-])cnc2cc1OCCN1CCOCC1 [11g]       µg/mL   3030
3  COc1cc2c(Nc3cccc(Cl)c3)c(N)cnc2cc1OCCCN1CCOCC1 [12c]       µg/mL  10500

-- ask Give the measured solubility at 24 h for COc1cc2c(Nc3ccccc3)c([N+](=O)[O-])cnc2cc1OCCCN1CCOCC1 [11a]
-- reply 620

From: paper PMC9570490
